biological target: T1, HCV Core 134-171-TT Peptide (hepatitis C virus (HCV-1 numbering) …); test: SPR, captured mAb, peptide analyte
T1 construct: also called ALRZ-9 peptide
value_type: Kd (nM)

[
  {
    "binder": "HCV 208A-557 (antibody, V domains shown) VH: QGQMQQSGAELVKPGASVKLSCKTSGFTFSSSYISWLKQKPGQSLEWIAWIYAGTGNTNYNQKFTDKAQLTVDTSSSTAYMQLSSLTTEDSAIYYCAISGTGFTYWGQGTLVTVSA VL: DIALTQSPASLAVSLGQRATISCRASQSVSTSRYSYMHWYQQKPGQPPELLIKYASNLESGVPARFSGSGSGTDFTLNIHPVGEEDTATYYCQHSWDFPFTFGSGTKLEIKR",
    "result": 0.091
  },
  {
    "binder": "HCV 208A-741 (antibody, V domains shown) VH: QLQQSGPVLVKPGASVMISCKTSGYTFTENAMHWVKQSHGKSLEWIGGVNPNNGDTIFNQKFKGKATLTVDKSSSTAFMELRSLTSEESTVYYCVRRELDFFDYWGQGTSVTVSS VL: DIVLTQSPASLAVSLGQRTTISCGASQSVSTSRFSYMHWYQQKPGQPPKLLIKYASNLESGVPARFSGSGSGTDFTLNIHPVAEEDTAAYYCQHSWEFPFTFGSGTKLEIKR",
    "result": 0.41
  },
  {
    "binder": "HCV 208A-133 (antibody, V domains shown) VH: QLQQSGPVLVGPGASVMISCKTSGYTFTENAMHWVEQSHGKSLEWIGGVNPNNGDTIFNQKFKGKATLTVDKSSSTAFMEFRSLTSEESTVYYCVRRELDFFDYWGQGTSVTVSS VL: DIVLTQSPASLAVSLGQRATISCRASQSVSTSRYSYMHWYQQKPGQPPKLLIKYASNLESGVPARFSGSGSGTDFTLNIHPVAEEDTATYYCQHSWEFPFTFGSGTKLEIKR",
    "result": 0.41
  },
  {
    "binder": "HCV 208A-983 (antibody, V domains shown) VH: QGQMQQSGAELVKPGASVKLSCKTSGFTFSSSYFSWLKQKPGQSLEWIAWIYAGTGNTIYNQKFTDKAQLTVDTASSTAFMQLSSLTIEDSAIYYCAISGTGFTYWGQGTLVTVSA VL: DVLMTQTPLSLPVNLGDQASISCRSSQSLLHSNGNTYLEWFLQKPGQSPKLLIYNVSNRFSGVPDRFSGSGSGTDFTLKISRVEAEDLGVYYCFQGSHVPFTFGSGTKLAIKR",
    "result": 0.46
  },
  {
    "binder": "HCV 208A-1064 (antibody, V domains shown) VH: EVQLQQSGPELVKPGASVKISCKTSGYTFTEYAMHWMKQSHGKSLEWIGGINPTNGDTIYNQKFKDKAKLTVDRSSSTAYMELRSLTSDDSALFYCARRELDYFASWGQGTTLTVSS VL: DIVLTQSPASLIVSLGQTATISCRASQSVSTSRFSYLHWIQQKPGQPPKLLIKYASNLESGVPVRFSGSGSGTDFTLNIHPVEEEDTATYFCQHSWEFPFTFGSGTKLKIKR",
    "result": 0.21
  },
  {
    "binder": "HCV 208B-1096 (antibody, V domains shown) VH: QVQLQQSGAGLAKPGASVKMSCKASGYTFTANKMHWAKQRPGQGLEWIGYIDPSSGYTEYNHKIQYKATLTADTSSSTAYMQLSTLTFEDSAVYYCTNFAYWGQGTLVTVSA VL: DIVMTQTPLTLSVTIGQPASISCKSSQSLLFTNGKTYLNWFLQRPGQSPKRLIYLLSKLDSGVPDRFSGSGSGTDFTLKISRVEAEDLGVYYCLQSTYFPLTFGAGTKLELKR",
    "result": 0.46
  },
  {
    "binder": "HCV 208B-471 (antibody, V domains shown) VH: QGQLQQSGPVLVKPGASEILYCKTSGFTFSSTYISWLKQKPGQSLEWIAWIYAGTGATNYNQKFTGKAQLTVDASSNTAYMHFSGLTPEDSAIYYCAISGAGVYWGQGTLVTVSA VL: DVVMTQTPLSLPVSLGDQASISCRSSQSLLHSNGNTYLEWYLQKPGQSPNLLIYNVSNRFSGVPDRFSGSGSGTDFALKISRVGAEDLGVYYCFQGSHVPLTFGAGTKLELKR",
    "result": 0.25
  },
  {
    "binder": "HCV 208B-589 (antibody, V domains shown) VH: QVQLQQSGAGLAKPGASVKMSCKASGYTFTANKMHWAKQRPGQGLEWIGYIDPSSGYTEYNHKIQDKATLTADTSSSTAYMQLSSLTFEDSAVYYCTNFAYWGQGTLVTVSA VL: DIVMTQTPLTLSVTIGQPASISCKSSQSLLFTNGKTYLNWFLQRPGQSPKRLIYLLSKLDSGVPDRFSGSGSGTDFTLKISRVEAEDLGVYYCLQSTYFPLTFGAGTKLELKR",
    "result": 0.63
  },
  {
    "binder": "HCV 208A-293 (antibody, V domains shown) VH: EVQLQQSGPELVKPGASVKISCKASGFTFTEYAMHWMKQSHGKSLEWIGGINPTNGDAIYNQKFKDKAKLTVDRSSSTAYMELRSLTSDDSALFYCARRELDYFPSWGQGTTLTVSS VL: DIVLTQSPASLIVSLGQRATISCRASQSVSTSRFSYVHWIQQKPGQPPKLLIKYASNLESGVPVRFSGSGSGTDFILNIHPVEEEDTATYFCQHSWEFPFTFGSGTKLEIKR",
    "result": 0.11
  },
  {
    "binder": "HCV 208A-222 (antibody, V domains shown) VH: EVQLQQSGPELEKPGASVRISCKTSGYTFTEYAMHWVKQSHGKSLEWIGGINPNNGNAIYNQIFKDKATLTVDRSSSTAYMGLRSLTFGDSGVYFCVRRQLDYFDYWGQGASLTVSS VL: DIVVTQSPASLAVSLGQRATISCRASQSVSTSRYSYLHWYQQKPGQPPKLLIKYASNLESGVPARFSGSGSGTDFTLNIHPVGEEDTATYYCQHSWEFPFTFGSGTKLEIKR",
    "result": 0.31
  }
]
